So I've got a bunch of compounds here, and I need their cytotoxicity at 10 µM values.
# testDetails: Toxicity liver stage against HepG2, at 10uM
# Assay type: cell-based
# Parameters: test concentration 10 uM, cell line HepG2-A16-CD81EGFP
# testConditions: human, HepG2-A16-CD81EGFP cells; read-out: INHIBITION
Use % as the unit, but write only the number.

Measured cytotoxicity at 10 µM, O=C(c1cccs1)N1CC[C@@H]2CN(C3CCOCC3)CCO[C@@H]2C1 : -110

Measured cytotoxicity at 10 µM, COCCN1CCn2c(nc3cc(C(=O)NC(C)C)ccc32)C1 : 2.38

Measured cytotoxicity at 10 µM, COCC1CN(C(=O)COc2ccccc2)Cc2cn(C)nc21 (stereo not given) : 0.55

Measured cytotoxicity at 10 µM, CN1CCN(Cc2cn3c(n2)CN(Cc2cccnc2)CC3)CC1 : 5.25

Measured cytotoxicity at 10 µM, O=C1NC[C@@]2(C(=O)O)CN(Cc3cccc(C(F)(F)F)c3)C[C@@H]12 : -8.58

Measured cytotoxicity at 10 µM, Cc1cc(NC(=O)CN2CCN(c3nccs3)C(C)C2)on1 (stereo not given) : -5.35

Measured cytotoxicity at 10 µM, Cc1n[nH]c(=O)c2c(NC(=O)CN3CCC(C)CC3)oc(C)c12 : -1.5

Measured cytotoxicity at 10 µM, CCN1C[C@H]2CCN(C(=O)Cc3cccc(OC)c3)CC[C@H]2S1(=O)=O : 9.86

Measured cytotoxicity at 10 µM, Cc1cc(C)nc(CCNC(=O)[C@H]2CNC[C@@H](C(=O)N3CCCC3)C2)n1 : -20.9

Measured cytotoxicity at 10 µM, CN(C)C(=O)N1CCCC2(CCN(Cc3ccc(Cl)c(F)c3)C2)C1 (stereo not given) : 7.07

###

# testDetails: Toxicity liver stage against HepG2, at 10uM
# Assay type: cell-based
# Parameters: test concentration 10 uM, cell line HepG2-A16-CD81EGFP
# testConditions: human, HepG2-A16-CD81EGFP cells; read-out: INHIBITION
measuredEndpoint: cytotoxicity at 10 µM (%)
Use % as the unit, but write only the number.

Measured cytotoxicity at 10 µM, CNC(=O)COc1ccc(CNCc2c(C)nn(C)c2N(C)C)cc1 : -5.92

Measured cytotoxicity at 10 µM, Cc1nc(CN(C)C(=O)c2cc(C)sc2NC(=O)C(C)(C)C)no1 : 3.81

Measured cytotoxicity at 10 µM, c1ccc2oc(CN3CCCC(Cn4cncn4)C3)nc2c1 (centres undefined) : -7.3

Measured cytotoxicity at 10 µM, Nc1cc(C(=O)N2CCCC(C(=O)CCc3ccccc3)C2)ccn1 (centres undefined) : -6.97

Measured cytotoxicity at 10 µM, NC(=O)COc1ccc(C(=O)NCCc2ccco2)cc1 : 10.1

Measured cytotoxicity at 10 µM, O=C(Cc1ccc(F)cc1)NCCc1ccoc1 : -10.5

Measured cytotoxicity at 10 µM, CNC(=O)COc1c(C(C)=O)ccc(Cl)c1Cl : -0.769

Measured cytotoxicity at 10 µM, Cn1nnc2c1CCN(S(C)(=O)=O)C2COCC1CC1 (centres undefined) : -4.6

Measured cytotoxicity at 10 µM, Cn1cccc1C(=O)N1CCCCC1c1ccn2ccnc2n1 (centres undefined) : -28.2

Measured cytotoxicity at 10 µM, CC(NC(=O)Cc1ccccc1F)C(=O)N1CCS(=O)(=O)CC1 (centres undefined) : 8.68

Measured cytotoxicity at 10 µM, COCCN(C)CC(=O)N1C[C@@H]2CC[C@H]1CN(C(=O)c1ccncc1)C2 : -0.908

Measured cytotoxicity at 10 µM, c1cncc(COCC2CNCc3nccn3C2)c1 (centres undefined) : 14.2

Measured cytotoxicity at 10 µM, CN(CCCc1cc(-c2ccccc2)n[nH]1)C(=O)CCCn1cncn1 : -147

Measured cytotoxicity at 10 µM, COc1ccc(CCNC(=O)N2CCN(C)[C@@H]3CS(=O)(=O)C[C@@H]32)cc1 : 6.05

Measured cytotoxicity at 10 µM, COCc1noc(-c2ccc(N(C)Cc3nccs3)nc2)n1 : -1.57

Measured cytotoxicity at 10 µM, CC(CN1CCOCC1)NC(=O)NCc1cccs1 (centres undefined) : -15.9

Measured cytotoxicity at 10 µM, CC(C)NC(=O)c1nnn(-c2cccc(C(F)(F)F)c2)c1C1CC1 : -19

Measured cytotoxicity at 10 µM, Cc1ccc(C(C)NCc2cn(CCC(N)=O)c3ccccc23)cc1C (centres undefined) : -1.69

Measured cytotoxicity at 10 µM, Cc1cc(C(=O)NCC(=O)NC(c2ncccc2C)C(C)C)c(C)o1 (centres undefined) : -9.6

Measured cytotoxicity at 10 µM, Cc1cc(CN(C)C(=O)C(c2ccccc2F)N(C)C)ccn1 (centres undefined) : 2.78

Measured cytotoxicity at 10 µM, Cc1[nH]ccc1C(=O)Nc1cccc(CN2CCC(O)CC2)c1 : 0.149

Measured cytotoxicity at 10 µM, O=C(Nc1cc(-c2ccccn2)no1)C1CC1 : -5.34

Measured cytotoxicity at 10 µM, CCN(C)c1ccc(C(=O)N(CCOC)Cc2ccccn2)cc1 : -3.96

Measured cytotoxicity at 10 µM, CN1CCN([C@@H]2CN(C(=O)c3cc4cccc(F)c4[nH]3)C[C@H]2O)CC1 : -6.81

###

# testDetails: Toxicity liver stage against HepG2, at 10uM
# Format: cell-based
# Set-up: test concentration 10 uM, cell line HepG2-A16-CD81EGFP
# testConditions: human, HepG2-A16-CD81EGFP cells; read-out: INHIBITION
So I've got a bunch of compounds here, and I need their cytotoxicity at 10 µM values.
Use % as the unit, but write only the number.

Measured cytotoxicity at 10 µM, CCCc1noc(CCC(=O)N2CCCCC2Cn2cc(C)cn2)n1 (stereo not drawn) : -0.232

Measured cytotoxicity at 10 µM, COC(=O)CCn1ccc(=O)c2cc(OC)ccc21 : 3.88

Measured cytotoxicity at 10 µM, CC(c1ccon1)N(C)Cc1cc(O)c2cc(F)ccc2n1 (stereo not drawn) : 5.5

Measured cytotoxicity at 10 µM, OCCC1CN(c2ncnc3[nH]cnc23)CCN1Cc1cccs1 (stereo not drawn) : 12.8

Measured cytotoxicity at 10 µM, CC1=N[C@@]2(CC[C@@H]3CN(C(=O)NCCc4ccccc4)C[C@@H]32)C(=O)N1 : -75.4

Measured cytotoxicity at 10 µM, Cc1ccc(C(=O)N2CC(c3cccnc3)C2)cc1N1CCNC1=O : -4.57

Measured cytotoxicity at 10 µM, Cc1c(C)n(CC(O)CN2CCC(O)CC2)c2c(Cl)cccc12 (stereo not drawn) : -13.9

Measured cytotoxicity at 10 µM, Cc1ccc(NC(=O)Nc2c(O)c3ccccc3oc2=O)cc1C : 5.89

Measured cytotoxicity at 10 µM, Cc1nccn1CCN(C)C(=O)C1CCN(C(=O)C2CCCC2)CC1 : -4.06

Measured cytotoxicity at 10 µM, CN(C)CCn1c(=O)oc2ccc(NC(=O)N3CCCCCC3)cc21 : -3.59

Measured cytotoxicity at 10 µM, CC(C)N(C)CCCNC(=O)c1cnn(C(C)C)c1C(F)(F)F : 5.31

Measured cytotoxicity at 10 µM, Cc1ccc(C(=O)N2CC[C@@H]3[C@H]2CCC(=O)N3CC2CC2)o1 : -0.419

Measured cytotoxicity at 10 µM, Cc1nn(C)c(C)c1CNC(=O)CCn1ncc2c(Cl)cccc21 : 8.38

Measured cytotoxicity at 10 µM, Cc1ccc(CN2C[C@@H]3C[C@H](C(=O)NCc4cccnc4)[C@H](C2)O3)o1 : 3.82

Measured cytotoxicity at 10 µM, CC(=O)N1Cc2nc(C(=O)NCCc3cccnc3)oc2C1 : -81.8

Measured cytotoxicity at 10 µM, Cc1cccc(C(=O)Nc2c(C(N)=O)n[nH]c2C)c1C : -1.49

Measured cytotoxicity at 10 µM, COCC(=O)N1CCC2(COCc3c(C)nc(N(C)C)nc32)C1 (stereo not drawn) : 9.09

Measured cytotoxicity at 10 µM, O=C(NC1COC2(CCN(Cc3ccccn3)CC2)C1)c1ccccn1 (stereo not drawn) : -4.74

Measured cytotoxicity at 10 µM, CCn1cnnc1C1CCN(C(=O)COc2ccccc2OC)CC1 : -4.41

Measured cytotoxicity at 10 µM, c1cnc(N2CCN3C[C@H](Oc4cncnc4)C[C@H]3C2)nc1 : 7.97

Measured cytotoxicity at 10 µM, COc1ccccc1CC(=O)N(CCN1CCOCC1)Cc1ccco1 : 2.91

Measured cytotoxicity at 10 µM, Cn1cc(CN2CC[C@@H]3O[C@H](C(=O)N4CCOCC4)C[C@@H]32)cn1 : -8.08

Measured cytotoxicity at 10 µM, CC(C)c1ocnc1C(=O)N1CC(=O)Nc2cccnc21 : 1.56

###

# testDetails: Toxicity liver stage against HepG2, at 10uM
# Type: cell-based
# Set-up: test concentration 10 uM, cell line HepG2-A16-CD81EGFP
# testConditions: human, HepG2-A16-CD81EGFP cells; read-out: INHIBITION
measuredEndpoint: cytotoxicity at 10 µM (%)
Use % as the unit, but write only the number.

Measured cytotoxicity at 10 µM, Cn1cc(CCCNC(=O)NCC(O)c2ccsc2)cn1 (stereo unspecified) : -5.4

Measured cytotoxicity at 10 µM, CCOc1ccccc1OC1CCN(Cc2ccn(C)c(=O)c2)CC1 : 3.91

Measured cytotoxicity at 10 µM, CC(C)c1cc(C(=O)N2C[C@@H]3CC[C@H]2CN(Cc2cccnc2)C3)no1 : 2.55

Measured cytotoxicity at 10 µM, O=C(NCCNc1cccnc1)C(c1cccnc1)N1CCCC1 (stereo unspecified) : 4.11

Measured cytotoxicity at 10 µM, CC(C)Cc1cc(NC(=O)c2cccnc2)n(C)n1 : -7.09

Measured cytotoxicity at 10 µM, CCn1nnnc1-c1cccc(NC(=O)COC2CCCC2)c1 : -0.47

Measured cytotoxicity at 10 µM, CNC(=O)CN1CCc2c(CNc3nccs3)n[nH]c2C1 : 3.25

Measured cytotoxicity at 10 µM, Cc1ccc([C@@H]2CN(C(=O)c3ccon3)C[C@H]2NC(=O)C2CC2)cc1 : 1.08

Measured cytotoxicity at 10 µM, CC(=O)Nc1ccc(C(=O)N(C)C(C)Cc2cc(C)ccn2)cn1 (stereo unspecified) : 1.32

Measured cytotoxicity at 10 µM, Cc1ccc(S(=O)(=O)NCCNC(=O)c2ccoc2)cc1F : -5.69

Measured cytotoxicity at 10 µM, COc1cc(F)ccc1CC(=O)N1CC[C@H]2C(=O)NCCO[C@H]2C1 : -108
